system: PC3; assay: Cell proliferation CellTiterGlo Ex.2; format: cell-based; details: Homo sapiens, PC-3; PC3 (Prostate), 72 h
measuredAttribute: IC50 (µM)
Give a bare numeral; the unit µM is implied.

Recorded IC50 of "C#C[C@]1(CO)O[C@@H](n2cnc3c(=O)[nH]c(N)nc32)C[C@@H]1O" , please.
4.01

====

test system: cancer cell lines; test: Cancer cell proliferation activity of representative nucleosides, CellTiterGlo 72 h (Example 7, Tables 8 and 9); format: cell-based; conditions: Homo sapiens, A-431, 72 h, A431, skin, 72 h
Would you mind telling me the reported IC50 of each entry?
Report the figure in nM without appending any unit label.

Param item = N#C[C@]1(CO)O[C@@H](n2ccc(N)nc2=O)C[C@@H]1O [compound 29] ; retrieve measured IC50.
300

# lookup: IC50 of C#C[C@]1(CO)O[C@@H](n2ccc(N)nc2=O)C[C@@H]1O [compound 7]
2010

Using the record for C#C[C@]1(CO)O[C@@H](n2cc(F)c(N)nc2=O)C[C@@H]1O [compound 9] , report its IC50.
110

====

test system: cancer cell lines; test: Cancer cell proliferation activity of representative nucleosides, CellTiterGlo 72 h (Example 7, Tables 8 and 9); type: cell-based; conditions: Homo sapiens, IGROV-1, 72 h, IGROV1, 72 h (Table 9)
measuredAttribute: IC50 (µM)
The reply should be a number in µM, with the unit left off.

Looking for the measured IC50 of C#C[C@]1(CO)O[C@@H](n2cnc3c(N)nc(F)nc32)C[C@@H]1O [Islatravir (EFdA), Islatravir, reference compound] , can you help?
3.03

IC50 lookup needed for "Nc1ccn([C@H]2C[C@H](O)[C@](CO)(CF)O2)c(=O)n1" , thanks.
0.51

====

test system: SU-DHL-6; test: Cell proliferation Ex.3; format: cell-based; details: Homo sapiens, SU-DHL-6, 168 h
measuredAttribute: IC50 (µM)
API: value field is a number in µM; no unit string.

Would you kindly share the measured IC50 for C#C[C@]1(CO)O[C@@H](n2cc(F)c(N)nc2=O)C[C@@H]1O [compound 9] ?
1.3

====

system: cancer cell lines; assay: Cancer cell proliferation activity of representative nucleosides, CellTiterGlo 72 h (Example 7, Tables 8 and 9); format: cell-based; details: Homo sapiens, SK-HEP1, 72 h, SKHEP1, 72 h (Table 9)
Field: IC50. Provide a value for each of the compounds that follow.

Please give the measured IC50 for this compound: "Cc1cn([C@H]2C[C@H](O)[C@@](C#N)(CO)O2)c(=O)[nH]c1=O"
3150 nM

Quick one: IC50 for Nc1nc(=O)n([C@@H]2C=C[C@H](CO)O2)cc1F [Elvucitabine, reference compound] ?
> 50000 nM

I'd like to know its IC50. The compound in question is C#C[C@]1(CO)O[C@@H](n2cnc3c(N)nc(F)nc32)C[C@@H]1O [Islatravir (EFdA), Islatravir, reference compound]
2660 nM

I'd like to know its IC50. The compound in question is "Nc1ccn([C@H]2C[C@H](O)[C@](CO)(CF)O2)c(=O)n1"
320 nM

====

tested on: LOVO; experiment: Cell proliferation Ex.3; type: cell-based; settings: Homo sapiens, 72 h
pIC50: −log10 of the molar value.
measuredAttribute: pIC50

Which pIC50 is listed for "C#C[C@]1(CO)O[C@@H](n2cc(F)c(N)nc2=O)C[C@@H]1O" ?
< 5.00

Just for reference, patent US20230293526A1 is where these values come from.
